Data credit: ChEMBL document CHEMBL3885861

Would you kindly list RBC for each of these compounds?
- Species: Rattus norvegicus
- Assay Summary: Open TG-GATES - Regimen: Daily Repeat
- Type: toxicity, organism-based, Sprague-Dawley
- Parameters: regimen Daily Repeat, gender Male, age 6 weeks
- Condition Parameters: in vivo, po, 0 mg/kg, […], tissue Blood, route gavage, dose level Control, time 7 day

Exercise: For "CC(=O)[C@@]1(O)CC[C@H]2[C@@H]3C=C(Cl)C4=CC(=O)CC[C@]4(C)[C@H]3CC[C@@]21C" , write its RBC.
Key: 680 x10_4/ul

Exercise: Output measured RBC for this item: "O=C(O)c1ccccc1Nc1ccccc1"
Key: 661.2 x10_4/ul

Exercise: Output RBC of "O=c1ccc2ccccc2o1"
Key: 649.8 x10_4/ul

Exercise: # return recorded RBC for entry NS(=O)(=O)c1cc(C(=O)O)c(NCc2ccco2)cc1Cl [FUROSEMIDE]
Key: 648.6 x10_4/ul

Exercise: Identify RBC associated with the compound "CCN(CC)C(=S)SSC(=S)N(CC)CC"
Key: 629 x10_4/ul

Exercise: Tell me measured RBC for "CCO" please.
Key: 687.8 x10_4/ul

Exercise: Consider the compound "CN(C/C=C/C#CC(C)(C)C)Cc1cccc2ccccc12" and give its recorded RBC.
Key: 669.2 x10_4/ul

Exercise: Supply reported RBC belonging to this compound: "CCCCC1C(=O)N(c2ccccc2)N(c2ccccc2)C1=O"
Key: 674.8 x10_4/ul

Exercise: // fetch RBC given entry CCCCNC(=O)NS(=O)(=O)c1ccc(C)cc1 [TOLBUTAMIDE]
Key: 657.4 x10_4/ul

Exercise: # return recorded RBC for entry CC(S)C(=O)NCC(=O)O (stereo not drawn)
Key: 667 x10_4/ul

Exercise: // Input: "COc1ccc([C@@H]2Sc3ccccc3N(CCN(C)C)C(=O)[C@@H]2OC(C)=O)cc1" . Output its RBC only.
Key: 648 x10_4/ul

Exercise: State its RBC: CN(CCOc1ccc(CC2SC(=O)NC2=O)cc1)c1ccccn1.O=C(O)/C=C\C(=O)O (stereo not drawn) [ROSIGLITAZONE MALEATE]
Key: 643.8 x10_4/ul

Exercise: For "Nc1ccc(Cc2ccc(N)cc2)cc1" , write its RBC.
Key: 650.6 x10_4/ul

---

- Species: Rattus norvegicus
- Assay Summary: Open TG-GATES - Regimen: Daily Repeat
- Type: toxicity, organism-based, Sprague-Dawley
- Design: regimen Daily Repeat, gender Male, age 6 weeks
- Condition Parameters: in vivo, po, 300 mg/kg, […], tissue Blood, route gavage, dose level Middle, time 28 day
Measure: Lym (%)
All answers are understood in %, so give the number only.

Exercise: Supply reported Lym belonging to this compound: CC(S)C(=O)NCC(=O)O (centres undefined)
Key: 82.6

Exercise: Return reported Lym. Input compound: "CC(=O)[C@@]1(O)CC[C@H]2[C@@H]3C=C(Cl)C4=CC(=O)CC[C@]4(C)[C@H]3CC[C@@]21C"
Key: 82.8

Exercise: Return reported Lym. Input compound: "O=C(O)c1ccccc1Nc1ccccc1"
Key: 79.8

Exercise: Output measured Lym for this item: CCCCNC(=O)NS(=O)(=O)c1ccc(C)cc1 [TOLBUTAMIDE]
Key: 81.4
